Cited source for all entries: DBAASP

# Test system: Acinetobacter baumannii ATCC 19606
# test-method-notes: ≥ marks a high value that may be exact or a test limit, other limits are often not marked, values filed in µg/mL are converted to µM
value-type: MIC

INSERT INTO measurements (chem_smiles, observed) VALUES
  ('CC[C@H](C)[C@H](NC(=O)[C@H](CCCN=C(N)N)NC(=O)[C@H](CCCCN)NC(=O)[C@@H](NC(=O)[C@@H](NC(=O)[C@H](CCCN=C(N)N)NC(=O)[C@@H](N)CCCCN)[C@@H](C)CC)C(C)C)C(=O)N[C@@H](CCCCN)C(=O)N[C@@H](CCCCN)C(=O)N[C@@H](Cc1ccccc1)C(=O)N[C@@H](CC(C)C)C(=O)N[C@@H](CCCN=C(N)N)C(=O)O', '≥ 101 µM'),
  ('CC(C)C[C@H](NC(=O)[C@H](Cc1cnc[nH]1)NC(=O)[C@H](CCCN=C(N)N)NC(=O)[C@H](CC(C)C)NC(=O)[C@H](CC(C)C)NC(=O)[C@H](Cc1cnc[nH]1)NC(=O)[C@H](CCCN=C(N)N)NC(=O)[C@H](CC(C)C)NC(=O)[C@H](CC(C)C)NC(=O)[C@H](Cc1cnc[nH]1)NC(=O)[C@H](CCCN=C(N)N)NC(=O)[C@H](CC(C)C)NC(=O)[C@H](C)NC(=O)[C@H](CC(=O)O)NC(=O)[C@@H](N)CC(=O)O)C(=O)O', '> 100 µM'),
  ('CC(C)C[C@H](NC(=O)[C@H](CC(C)C)NC(=O)[C@H](CCCCN)NC(=O)[C@H](CCCCN)NC(=O)[C@H](CC(C)C)NC(=O)[C@H](CCC(=O)O)NC(=O)[C@H](CCCCN)NC(=O)[C@H](CC(C)C)NC(=O)[C@@H](N)Cc1ccccc1)C(N)=O', '113 µM'),
  ('CC[C@H](C)[C@H](NC(=O)[C@H](CO)NC(=O)[C@H](C)NC(=O)[C@@H](NC(=O)CNC(=O)[C@H](CO)NC(=O)[C@@H](NC(=O)[C@@H](NC(=O)[C@H](Cc1cnc[nH]1)NC(=O)[C@@H]1CCCN1C(=O)[C@@H](NC(=O)[C@H](CC(C)C)NC(=O)[C@H](CO)NC(=O)[C@H](CC(C)C)NC(=O)[C@@H](N)Cc1ccccc1)[C@@H](C)CC)[C@@H](C)CC)C(C)C)C(C)C)C(=O)N[C@@H](C)C(=O)N[C@@H](CCCCN)C(=O)N[C@@H](Cc1cnc[nH]1)C(=O)N[C@@H](Cc1ccccc1)C(N)=O', '6.25 µM'),
  ('CC[C@H](C)[C@H](NC(=O)CN)C(=O)N[C@@H](Cc1ccccc1)C(=O)N[C@@H](CO)C(=O)N[C@@H](CCCCN)C(=O)N[C@@H](CC(C)C)C(=O)N[C@@H](C)C(=O)NCC(=O)N[C@@H](CCCCN)C(=O)N[C@@H](CCCCN)C(=O)N[C@H](C(=O)N[C@@H](CCCCN)C(=O)N[C@@H](CC(N)=O)C(=O)N[C@@H](CC(C)C)C(=O)N[C@@H](CC(C)C)C(=O)N[C@H](C(=O)N[C@@H](CO)C(=O)NCC(=O)N[C@@H](CC(C)C)C(=O)N[C@@H](CCCCN)C(=O)NCC(N)=O)[C@@H](C)CC)[C@@H](C)CC', '1.56 µM');
